System: SW-620
Assay: NCI tumour cell line growth inhibition, 48 h
Calls of active or inactive are those of the source. No stated cut-off is given here; in the data, active = GI50 up to about 1.1 µM and inactive = higher.

{"Compound": "CC1=NN(c2cccc(Cl)c2)C(=N/c2nc3ccccc3s2)/C1=C\\c1cccs1", "GI50": "54.2 µM (inactive)"}
{"Compound": "O=C1C(Cl)=C(Cl)C(=O)N1C1C2CC3CC(C2)CC1C3 (configuration not stated)", "GI50": "47 µM (inactive)"}
{"Compound": "NC1c2c(Br)sc(N3CCCC3)c2C(=O)C1O (configuration not stated)", "GI50": "> 50 µM (inactive)"}
{"Compound": "CCOC(=O)Nn1cnnc1C", "GI50": "> 100 µM (inactive)"}
{"Compound": "COc1ccc(-c2cc(-c3cc(Cl)cc(Br)c3O)nc(O)n2)cc1", "GI50": "20.7 µM (inactive)"}
{"Compound": "C/C(=N\\Nc1nc2ccccc2[nH]1)c1ccc2ccccc2n1", "GI50": "3.58 µM (inactive)"}
{"Compound": "OC1(c2ccccc2)C2CC=CC2C1(c1ccccc1)c1ccccc1 (configuration not stated)", "GI50": "30.2 µM (inactive)"}
{"Compound": "O=C1NC(=S)NC(=O)C1=Cc1ccc2ccccc2n1", "GI50": "> 100 µM (inactive)"}
{"Compound": "NC(C(=O)O)c1cc(O)no1 (configuration not stated)", "GI50": "> 100 µM (inactive)"}
{"Compound": "CC1=C(O)C(=O)c2cn(C)cc2C1=O", "GI50": "> 100 µM (inactive)"}
{"Compound": "COC(=O)c1oc([N+](=O)[O-])c(-c2ccccc2)c1-c1ccccc1", "GI50": "> 100 µM (inactive)"}
{"Compound": "Nc1nc(Cl)cc(NC2(CO)CCC2)n1", "GI50": "> 100 µM (inactive)"}
